system: SK-MEL-2 melanoma; experiment: NCI-60 one-dose screen, 48 h; details: 10 µM unless noted
Compounds without any hit were thinned out: in the full panel of roughly 83,000, 20% have a hit. Activity calls are given as the source filed them. The calls were made as follows: active = growth percent below 10; inactive = the rest.
Outcomes: 1 (yes) (active), 0 (no) (inactive)

>  <compound>
COc1ccc([C@@H]2c3[nH]c4ccccc4c3C[C@H]3C(=O)N(C4CCN(CC5CCCCC5)CC4)CC(=O)N23)c(OC)c1

>  <qualitative.label>
0 (no)

$$$$
>  <compound>
O=[N+]([O-])c1cc(/C=N/Nc2nc(N/N=C/c3ccc(Cl)c([N+](=O)[O-])c3)nc(N3CCCCC3)n2)ccc1Cl

>  <qualitative.label>
0 (no)

$$$$
>  <compound>
COc1cc(/C=C2\C(=O)Nc3ccccc32)ccc1OCc1ccc(F)cc1

>  <qualitative.label>
0 (no)

$$$$
>  <compound>
CN(C)CCNC(=O)c1ccc(-c2nc3ccc4[nH]ncc4c3c3c2CCC3)cc1

>  <qualitative.label>
1 (yes)

$$$$
>  <compound>
CCCn1cnc2c(c1=N)C(c1ccc(Cl)cc1)c1sc3c(C)cccc3c1O2 (centres undefined)

>  <qualitative.label>
0 (no)

$$$$
>  <compound>
CCOc1cccc(-c2nc3sccn3c2-c2ccnc(S(C)(=O)=O)n2)c1

>  <qualitative.label>
0 (no)

$$$$
>  <compound>
O=C(NCCn1ccnc1)c1ccc(-c2nc3ccc4[nH]ncc4c3c3c2CCCC3)cc1

>  <qualitative.label>
0 (no)

$$$$
>  <compound>
O=C1CCC(N2C(=O)c3ccc(NS(=O)(=O)c4ccccc4OC(F)(F)F)cc3C2=O)C(=O)N1 (centres undefined)

>  <qualitative.label>
0 (no)

$$$$
>  <compound>
Cc1ccc(NC(=S)NNC(=S)Nc2ccc(C)cc2)cc1

>  <qualitative.label>
0 (no)

$$$$

----------
test system: TK-10 renal; assay: NCI-60 one-dose screen, 48 h; settings: 10 µM unless noted
About 83,000 compounds went through this panel and 20% of them were active in at least one assay; those are over-represented in the sample as a whole. Calls of active or inactive are those of the source. The calls were made as follows: active = growth percent below 10; inactive = the rest.
Classes used: active, inactive

>  <chem.smiles>
Cn1ccnc1C(=O)/C=C/c1ccc(CNC(=O)c2c(F)c(F)c(F)c(F)c2F)cc1

>  <qualitative.label>
inactive

$$$$
>  <chem.smiles>
N#Cc1c(Nc2ccccc2)nn2c(-c3ccc([N+](=O)[O-])cc3)ccnc12

>  <qualitative.label>
inactive

$$$$
>  <chem.smiles>
CCc1cccc(NC(=O)CNc2cc(S(=O)(=O)N(C)C)cc(C)c2C)c1

>  <qualitative.label>
inactive

$$$$
>  <chem.smiles>
Cc1cc(C)n(C(=O)c2sc(=S)n(-c3ccccc3)c2N=Nc2c(N)n[nH]c2N)n1

>  <qualitative.label>
inactive

$$$$
>  <chem.smiles>
CN1CCN(Cc2ccc(NC(=O)c3cncc(C#Cc4cnc5ccc(OCC(C)(C)O)nn45)c3)cc2C(F)(F)F)CC1

>  <qualitative.label>
active

$$$$

----------
tested on: BT-549 breast; assay: NCI-60 one-dose screen, 48 h (100 = growth as untreated, 0 = no growth, -100 = all killed); conditions: 10 µM unless noted
About 83,000 compounds went through this panel and 20% of them were active in at least one assay; those are over-represented in the sample as a whole.
# growth listing for each entry below
measured.endpoint: growth (%)

>  <compound>
NC(N)=Nc1ccc(Oc2cccc(NC(N)=Nc3ccc(Br)cc3)c2)cn1

>  <target.entity>
BT-549 breast

>  <measured.endpoint>
growth

>  <endpoint.result>
99.2

$$$$
>  <compound>
C#CCn1cccc1CNc1ccc(OC)cc1

>  <target.entity>
BT-549 breast

>  <measured.endpoint>
growth

>  <endpoint.result>
-83.7

$$$$
>  <compound>
O=c1[nH]c(Sc2sc3ccc(Cl)cc3c2CBr)nc(=S)[nH]1

>  <target.entity>
BT-549 breast

>  <measured.endpoint>
growth

>  <endpoint.result>
48.5

$$$$
>  <compound>
CCNC(=O)N1CCc2cc(OC)c(OCCc3ccc(OC)nc3)cc2C1c1ccc(C)cc1C (stereo not given)

>  <target.entity>
BT-549 breast

>  <measured.endpoint>
growth

>  <endpoint.result>
-6.5

$$$$
>  <compound>
COCCNc1ccc2ncc(C#Cc3cncc(C(=O)Nc4ccc(CN5CCN(C)CC5)c(C(F)(F)F)c4)c3)n2n1

>  <target.entity>
BT-549 breast

>  <measured.endpoint>
growth

>  <endpoint.result>
-36.7

$$$$
>  <compound>
CC(C)c1ccc(NCc2cn(-c3ccc(C(=O)O)cc3)nc2-c2cc(C(F)(F)F)cc(C(F)(F)F)c2)cc1

>  <target.entity>
BT-549 breast

>  <measured.endpoint>
growth

>  <endpoint.result>
102

$$$$
>  <compound>
CC(=O)N1N=C(c2cccc(-n3cccc3)c2)CC1c1cccc(F)c1 (stereo not given)

>  <target.entity>
BT-549 breast

>  <measured.endpoint>
growth

>  <endpoint.result>
126

$$$$
>  <compound>
N#Cc1cccc(/C(N)=N/C(N)=N/c2nc3ccccc3s2)c1

>  <target.entity>
BT-549 breast

>  <measured.endpoint>
growth

>  <endpoint.result>
49.3

$$$$
>  <compound>
NC(N)=Nc1ccc(Oc2cccc(NC(N)=Nc3ccc(Cl)c(C(F)(F)F)c3)c2)cc1

>  <target.entity>
BT-549 breast

>  <measured.endpoint>
growth

>  <endpoint.result>
43.8

$$$$
>  <compound>
Fc1ccc(-c2cc3nc(C(Cl)Cl)nc(-c4ccc(F)cc4)n3n2)cc1

>  <target.entity>
BT-549 breast

>  <measured.endpoint>
growth

>  <endpoint.result>
47

$$$$

----------
Some compounds, each annotated with its measured growth.
test system: NCI-H522 lung; assay: NCI-60 one-dose screen, 48 h (100 = growth as untreated, 0 = no growth, -100 = all killed); details: 10 µM unless noted
The panel holds about 83,000 compounds, 20% with a hit somewhere; the sample as a whole holds those more often.

>  <compound>
CCCCCc1ccc(S(=O)(=O)Nc2cccc(-c3csc(NC(=O)CCCCCN4CCN(C)CC4)n3)c2)cc1

>  <target.entity>
NCI-H522 lung

>  <growth / %>
64.3

$$$$
>  <compound>
CN(Cc1ccccc1)S(=O)(=O)/N=C1\NC(=O)NC1=C(Cl)Cl

>  <target.entity>
NCI-H522 lung

>  <growth / %>
-21.5

$$$$
>  <compound>
O=S(=O)(NCCNc1nccc(-n2cnc3ccccc32)n1)c1ccc(Br)cc1

>  <target.entity>
NCI-H522 lung

>  <growth / %>
87.2

$$$$
>  <compound>
O=S(=O)(NCCCNc1nccc(-n2cnc3ccccc32)n1)c1ccc(C(F)(F)F)cc1

>  <target.entity>
NCI-H522 lung

>  <growth / %>
70

$$$$
>  <compound>
CCNC(=O)N1CCc2cc(OC)c(OCCc3ccc(OC)cc3)cc2C1c1ccc(OC)cc1C (stereo not drawn)

>  <target.entity>
NCI-H522 lung

>  <growth / %>
-8.18

$$$$
>  <compound>
CC(C)(C)c1ccc(C(=O)Nc2sc3c(c2C(N)=O)CC/C(=N\O)C3)cc1

>  <target.entity>
NCI-H522 lung

>  <growth / %>
-2.43

$$$$
>  <compound>
NC(=O)c1c(NC(=O)c2ccc(F)cc2F)sc2c1CCC(=O)C2

>  <target.entity>
NCI-H522 lung

>  <growth / %>
10.2

$$$$
>  <compound>
COc1cc2oc(-c3cccc(C(=O)N[C@@H](CC(C)C)C(=O)OC(C)(C)C)c3)cc(=O)c2c(OC)c1OC

>  <target.entity>
NCI-H522 lung

>  <growth / %>
83.1

$$$$
>  <compound>
COc1cc(C2N=C(NNc3ccccc3)NC(C)=C2C(C)=O)ccc1O (stereo not drawn)

>  <target.entity>
NCI-H522 lung

>  <growth / %>
78.5

$$$$
>  <compound>
O=C(CSc1nc2ccccc2c(=O)n1-c1ccccc1)Nc1cccc(C(=O)/C=C/c2ccccc2)c1

>  <target.entity>
NCI-H522 lung

>  <growth / %>
92

$$$$
>  <compound>
CCNC(=O)N1CCc2cc(OC)c(OCCc3ccc(OC)nc3)cc2C1c1ccc(OC)cc1C (stereo not drawn)

>  <target.entity>
NCI-H522 lung

>  <growth / %>
19.4

$$$$
>  <compound>
O=C(CSc1nc2ccccc2c(=O)n1-c1ccccc1)Nc1cccc(C(=O)/C=C/c2ccccc2Cl)c1

>  <target.entity>
NCI-H522 lung

>  <growth / %>
97.4

$$$$
>  <compound>
COc1cc(-c2nc(SCCC(C)C)nc(NNC(=O)c3ccncc3)c2C#N)cc(OC)c1OC

>  <target.entity>
NCI-H522 lung

>  <growth / %>
27.9

$$$$
>  <compound>
C#Cc1nc(C(C)=O)cs1

>  <target.entity>
NCI-H522 lung

>  <growth / %>
92.1

$$$$
>  <compound>
CCCSc1nc(Nc2ccc(/C(C)=N\NC(N)=S)cc2)c(C#N)c(-c2ccccc2)n1

>  <target.entity>
NCI-H522 lung

>  <growth / %>
85.2

$$$$
>  <compound>
c1ccc(C(c2nc3ncncc3[nH]2)N2CSc3nc4ncncc4n3C2)cc1 (stereo not drawn)

>  <target.entity>
NCI-H522 lung

>  <growth / %>
39.8

$$$$
>  <compound>
Cc1ccc(C2=Nn3c(nnc3-c3ccccc3)SC2)cc1

>  <target.entity>
NCI-H522 lung

>  <growth / %>
-2.45

$$$$
>  <compound>
COc1ccccc1-n1cc(C#N)c(N)c1C(=O)c1ccc(C)cc1

>  <target.entity>
NCI-H522 lung

>  <growth / %>
64

$$$$
>  <compound>
Cc1ccc(-n2cc(/C=N/NC(=O)c3nc(N)n[nH]3)c(-c3ccc(S(C)(=O)=O)cc3)n2)cc1

>  <target.entity>
NCI-H522 lung

>  <growth / %>
92.3

$$$$
>  <compound>
CCOP(=O)(OCC)OC[C@]12CCC(C)(C)C=C1[C@H]1CC[C@@H]3[C@@]4(C)CC[C@H](OP(=O)(OCC)OCC)C(C)(C)[C@@H]4CC[C@@]3(C)[C@]1(C)CC2

>  <target.entity>
NCI-H522 lung

>  <growth / %>
-59.1

$$$$
>  <compound>
COc1cc(OC)cc(C(=O)Nc2sc3c(c2C(N)=O)CCC(=O)C3)c1

>  <target.entity>
NCI-H522 lung

>  <growth / %>
5.02

$$$$
>  <compound>
CC(O)c1cc2ccccc2c(=O)o1 (stereo not drawn)

>  <target.entity>
NCI-H522 lung

>  <growth / %>
98.6

$$$$
>  <compound>
CC(C)(C)CC(C)(C)n1nnnc1C(Nc1nccs1)c1cc2cccc3ccc4cccc1c4c32 (stereo not drawn)

>  <target.entity>
NCI-H522 lung

>  <growth / %>
96.8

$$$$
>  <compound>
COc1ccc2[nH]cc(/C=N/Nc3nc4ccccc4s3)c2c1

>  <target.entity>
NCI-H522 lung

>  <growth / %>
28.5

$$$$
>  <compound>
C=C1CC[C@@H]2[C@]3(C)COC(c4ccccc4)O[C@@H]3CC[C@@]2(C)[C@@H]1C/C=C1/C(=O)OC[C@H]1O (stereo partly drawn)

>  <target.entity>
NCI-H522 lung

>  <growth / %>
63.5

$$$$
>  <compound>
CNC(=O)c1cc(Oc2ccc3nc(NC(=O)c4cccc(OC(F)(F)F)c4)sc3c2)ccn1

>  <target.entity>
NCI-H522 lung

>  <growth / %>
60.3

$$$$
>  <compound>
CCCn1cnc2c(c1=N)C(c1ccc(Cl)cc1)c1sc3c(C)cccc3c1O2 (stereo not drawn)

>  <target.entity>
NCI-H522 lung

>  <growth / %>
-5.59

$$$$
>  <compound>
Cc1cc(C(NC(=O)CCCCCNc2cccc3c2C(=O)N(C2CCC(=O)NC2=O)C3=O)c2ccc3c(c2)OC(F)(F)O3)c(O)c2ncccc12 (stereo not drawn)

>  <target.entity>
NCI-H522 lung

>  <growth / %>
72.1

$$$$
>  <compound>
C=CCn1c(-c2nc3ccc(C(=C(C#N)C#N)c4ccccc4)cc3[nH]2)cc2cc(Br)ccc21

>  <target.entity>
NCI-H522 lung

>  <growth / %>
60.2

$$$$
>  <compound>
CCn1c2ccccc2c2cc(-n3nncc3-c3ccccc3)ccc21

>  <target.entity>
NCI-H522 lung

>  <growth / %>
4.55

$$$$
>  <compound>
Cc1ccc(CSc2nc(-c3ccc(Cl)cc3)c(C#N)c(N3CCOCC3)n2)cc1

>  <target.entity>
NCI-H522 lung

>  <growth / %>
78.4

$$$$
>  <compound>
C=C(C=O)[C@@H]1CC[C@]2(C)[C@H](C(=O)C=C3[C@H]4C[C@](C)(C(=O)OC)CC[C@]4(C)CC[C@]32C)[C@@]1(C)CCC#N

>  <target.entity>
NCI-H522 lung

>  <growth / %>
52.5

$$$$
>  <compound>
CC(=O)c1cc(C(=O)c2ccc(Br)cc2)n2cc(C)cc(C)c12

>  <target.entity>
NCI-H522 lung

>  <growth / %>
85.3

$$$$
>  <compound>
O=S(=O)(Nc1cccc2ccccc12)c1ccc(-c2cnc(C3CC3)o2)cc1

>  <target.entity>
NCI-H522 lung

>  <growth / %>
21.9

$$$$
>  <compound>
CCOC(=O)c1c(Nc2ccccc2)nn2c(-c3cccs3)ccnc12

>  <target.entity>
NCI-H522 lung

>  <growth / %>
82.1

$$$$
>  <compound>
COc1cc(/C=C2\C(=O)Nc3ccccc32)ccc1OCc1ccc(F)cc1

>  <target.entity>
NCI-H522 lung

>  <growth / %>
91.9

$$$$
>  <compound>
O=C(Nc1nc2ccc([N+](=O)[O-])cc2s1)Nc1ccccc1Br

>  <target.entity>
NCI-H522 lung

>  <growth / %>
26.5

$$$$
>  <compound>
O=C(NNc1nc2cc(F)ccc2n2c(CN3CC4CNCC4C3)ccc12)c1cnccn1 (stereo not drawn)

>  <target.entity>
NCI-H522 lung

>  <growth / %>
16.9

$$$$
